- ASSAY_TARGET: T1, EsCas13d, nuclease-dead (Eubacterium siraeum, UniProt B0MS50, R295A;H300A;R849A;H854A)
- T1 sequence: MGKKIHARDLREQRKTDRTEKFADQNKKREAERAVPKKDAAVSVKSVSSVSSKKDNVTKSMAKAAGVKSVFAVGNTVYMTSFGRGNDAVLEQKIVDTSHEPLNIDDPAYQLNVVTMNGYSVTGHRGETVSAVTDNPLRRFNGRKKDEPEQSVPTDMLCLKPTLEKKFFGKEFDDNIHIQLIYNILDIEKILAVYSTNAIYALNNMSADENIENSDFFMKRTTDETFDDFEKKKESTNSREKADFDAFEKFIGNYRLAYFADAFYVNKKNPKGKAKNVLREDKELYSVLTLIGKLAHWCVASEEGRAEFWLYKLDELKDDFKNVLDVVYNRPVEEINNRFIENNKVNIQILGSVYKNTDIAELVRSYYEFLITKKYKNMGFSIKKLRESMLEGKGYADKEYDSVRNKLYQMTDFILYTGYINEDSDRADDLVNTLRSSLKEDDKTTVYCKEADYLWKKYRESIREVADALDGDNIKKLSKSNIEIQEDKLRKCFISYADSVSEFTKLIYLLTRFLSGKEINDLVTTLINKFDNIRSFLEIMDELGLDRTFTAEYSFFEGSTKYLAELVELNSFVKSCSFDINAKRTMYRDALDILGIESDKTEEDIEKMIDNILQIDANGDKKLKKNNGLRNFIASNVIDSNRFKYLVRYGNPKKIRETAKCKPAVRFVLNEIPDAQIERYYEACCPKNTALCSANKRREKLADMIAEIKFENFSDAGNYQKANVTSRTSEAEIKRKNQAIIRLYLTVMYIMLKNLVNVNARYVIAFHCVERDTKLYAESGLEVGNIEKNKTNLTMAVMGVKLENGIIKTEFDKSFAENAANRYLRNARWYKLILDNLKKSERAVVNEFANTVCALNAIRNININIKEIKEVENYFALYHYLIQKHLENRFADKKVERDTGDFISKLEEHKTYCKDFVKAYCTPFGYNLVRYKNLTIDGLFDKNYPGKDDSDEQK
- ASSAY_METHOD_TEXT: crRNA (strand 1, pre-loaded); Mg2+; 40 mM Tris-HCl pH 7.5, 150 mM NaCl, 6 mM MgCl2, 1 mM DTT, 0.1% Tween-20, 0.2 mg/ml BSA; 25 C; 10 min per concentration, then washed
- STATED_CONDITIONS: tags: His6-TwinStrep-SUMO cleaved; N-terminal SNAP kept (SNAP-Surface 488); label: 3' end held by stalled T7 RNA polymerase
pKd: −log10 of the molar value.
TEST_READOUT: pKd

binder="target 1 insU 3' of 14,insC 3' of 14 (mixed) RNA 1: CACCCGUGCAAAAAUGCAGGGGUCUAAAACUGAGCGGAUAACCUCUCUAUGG RNA 2: GGGAAUGGAUCCACAUCUACGAAUUCGUACCAUAGAGAUCGGUUAUCCGCUCACCGAGAUCGGAAGAGCACACGU" value_reported=7.43
binder="target 1 G5C,A16C (mixed) RNA 1: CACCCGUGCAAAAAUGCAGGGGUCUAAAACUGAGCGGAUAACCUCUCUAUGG RNA 2: GGGAAUGGAUCCACAUCUACGAAUUCGUACCAUAGCGAGGUUAUCCCCUCACCGAGAUCGGAAGAGCACACGU" value_reported=7.06
binder="target 1 MT 5'PFS ACA 3'PFS CUA (mixed) RNA 1: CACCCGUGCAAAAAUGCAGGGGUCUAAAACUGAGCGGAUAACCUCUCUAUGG RNA 2: GGGAAUGGAUCCACAUCUACGAAUUCACACCAUAGAGAGGUUAUCCGCUCACUAAGAUCGGAAGAGCACACGU" value_reported=7.90
binder="target 2 MT 5'PFS CUG 3'PFS UGU (mixed) RNA 1: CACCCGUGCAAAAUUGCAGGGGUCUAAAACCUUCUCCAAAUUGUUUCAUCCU RNA 2: GGGAAUGGAUCCACAUCUACGAAUUCCUGAGGAUGAAACAAUUUGGAGAAGUGUAGAUCGGAAGAGCACACGU" value_reported=8.43
